Form field: EC50 for IL-2 rescue, hLAG3 Jurkat T system (one value per entry).
Target: T1, human LAG3 expressed on cells (human, UniProt P18627 23-525)
T1 sequence (looked up): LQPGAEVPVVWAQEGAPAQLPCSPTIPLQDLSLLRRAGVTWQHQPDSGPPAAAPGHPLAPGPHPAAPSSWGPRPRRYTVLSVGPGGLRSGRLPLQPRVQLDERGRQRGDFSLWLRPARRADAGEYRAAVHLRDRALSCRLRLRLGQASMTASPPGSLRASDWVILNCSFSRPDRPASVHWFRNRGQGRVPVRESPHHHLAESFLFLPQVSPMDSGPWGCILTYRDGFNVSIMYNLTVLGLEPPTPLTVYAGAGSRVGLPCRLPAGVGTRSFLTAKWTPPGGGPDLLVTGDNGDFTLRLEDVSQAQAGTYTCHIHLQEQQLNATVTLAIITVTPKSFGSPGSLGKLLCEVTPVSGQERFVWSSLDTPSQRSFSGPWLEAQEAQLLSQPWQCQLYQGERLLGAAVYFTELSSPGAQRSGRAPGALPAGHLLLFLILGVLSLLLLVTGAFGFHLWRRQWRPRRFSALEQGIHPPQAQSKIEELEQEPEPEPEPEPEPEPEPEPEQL
Assay: cell-based or functional assay
Give the value, in units of nM, as a plain number.

[
  {
    "binder": "sdAb No. 18 (VHH, Fc of the tested form not described; also called sdAb 18; not shown: Fc part implied by anti-human Fc capture) VHH: QVQLVESGGGLVQPGGSLRLSCAASGFTLNEHAIGWFRRAPGKEREGVSCISSSDGSTYYHDSVKGRFNMSRDDAKNSVYLQMSSLKPEDTAIYYCAAALGRDCQGGQWKTSSWGQGTQVTVSS",
    "units symbol": "nM",
    "experimental value": 60.6
  }
]

Kindly consider the entry below.
Per the records, this binder ( sdAb No. 20 (VHH, Fc of the tested form not described; also called sdAb 20; not shown: Fc part implied by anti-human Fc capture) VHH: QVQLVESGGGLVQPGGSLRLSCAASGLTLDGYAVGWFRQAPGKDREGLSCISGSDGSTHYLDSVKGRFTISRDNAKSTMALQMNSLQFGDTAIYYCAARRGSCSGSWTYWGQGTQVTVSS ) has EC50 for IL-2 rescue, hLAG3 Jurkat T system equal to 14.2
